For each record, write down the corresponding GLP-1 activity, Compared to GLP-1 (Exendin-4).
Target: GLP-1R (on GLP-1R/CHO cells, DiscoverX 95-0062C2) (UniProt P43220 24-463)
Sequence (P43220 24-463 limits assumed): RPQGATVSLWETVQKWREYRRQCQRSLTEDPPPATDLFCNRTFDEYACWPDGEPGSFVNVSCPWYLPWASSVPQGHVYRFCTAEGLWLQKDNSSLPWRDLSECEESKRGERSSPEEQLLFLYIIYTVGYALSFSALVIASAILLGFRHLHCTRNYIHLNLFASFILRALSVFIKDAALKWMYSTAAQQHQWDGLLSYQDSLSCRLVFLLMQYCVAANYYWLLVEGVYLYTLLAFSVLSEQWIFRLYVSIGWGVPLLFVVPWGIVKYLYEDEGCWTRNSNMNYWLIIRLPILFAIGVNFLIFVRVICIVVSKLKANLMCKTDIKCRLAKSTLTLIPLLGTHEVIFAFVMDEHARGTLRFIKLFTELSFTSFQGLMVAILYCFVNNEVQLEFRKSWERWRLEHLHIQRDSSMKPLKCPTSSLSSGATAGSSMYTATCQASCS
Experiment: cell-based or functional assay
Numbered stars: 1 amine (or outer) side, 2 acyl side, 3 side chain; on linkers, the order of the positions; unused ones are H or OH. Side chains are listed from the residue outwards. Ends that are not written are not given here. * marks the point of attachment. mPEG 3.4 kDa = 3.4 kDa maleimidated PEG on Cys; C18 diacid = O=C(O)CCCCCCCCCCCCCCCCC(=O)*; γGlu = O=C(O)[C@H](CCC(=O)[*:2])N[*:1]; Palmitoyl = CCCCCCCCCCCCCCCC(=O)*
All answers are understood in %, so give the number only.

*Q* Input HGEGTFTSDLSTYLDALAARDFINWLIQTKITDKK([γGlu-C18 diacid]) [HU020M1] , output reported GLP-1 activity, Compared to GLP-1 (Exendin-4).
*A* 6.3

*Q* Input HGEGTFTSDLSTYLDALAARDFINWLIQTKITD [HU020] , output reported GLP-1 activity, Compared to GLP-1 (Exendin-4).
*A* 171

*Q* Input HGEGTFTSDLSTYLDALAAC(mPEG 3.4 kDa)DFINWLIQTKITDKK([γGlu-Palmitoyl]) [HU020M6] , output reported GLP-1 activity, Compared to GLP-1 (Exendin-4).
*A* 15.5

*Q* Input HGEGTFTSDLSTYLDALAARDFINWLIQTKITDKK(Palmitoyl) [HU020K2FA] , output reported GLP-1 activity, Compared to GLP-1 (Exendin-4).
*A* 23.6
